# Tested on: 327498-153-R-J2-PDC complex spheroid growth, % test/control
# TEST NAME: Anticancer human tumor 327498-153-R-J2-PDC patient-derived uterine carcinosarcoma cell line growth inhibition [Asc]
# RUN PARAMETERS: second compound 3 µM; first compound 1 µM; active compounds read low
MEASUREMENT LABEL: viability, T/C (%)

| COMPOUND | EXPERIMENTAL RESULT |
| --- | --- |
| CNC(C)C(=O)NC1CN(S(=O)(=O)c2cccc(S(=O)(=O)N3CCC4CCC(C(=O)NC(c5ccccc5)c5ccccc5)N4C(=O)C(NC(=O)C(C)NC)C3)c2)CCC2CCC(C(=O)NC(c3ccccc3)c3ccccc3)N2C1=O (centres undefined) + CCN1C(C(=O)NC23CCC(C(=O)O)(CC2)CC3)C(c2cccc(Cl)c2F)C2(C(=O)Nc3cc(Cl)ccc32)C12CCCCC2 | 1.12 |
| CCN1CCN(Cc2ccc(Nc3ncc(F)c(-c4cc(F)c5nc(C)n(C(C)C)c5c4)n3)nc2)CC1 + CCN1C(C(=O)NC23CCC(C(=O)O)(CC2)CC3)C(c2cccc(Cl)c2F)C2(C(=O)Nc3cc(Cl)ccc32)C12CCCCC2 | 8.39 |
| C#Cc1c(F)ccc2cc(O)cc(-c3ncc4c(N5CC6CCC(C5)N6)nc(OCC56CCCN5CC(F)C6)nc4c3F)c12 (centres undefined) + CCN1C(C(=O)NC23CCC(C(=O)O)(CC2)CC3)C(c2cccc(Cl)c2F)C2(C(=O)Nc3cc(Cl)ccc32)C12CCCCC2 | 1.55 |
| COc1c(OCCCN2CCOCC2)ccc2c3n(c(=NC(=O)c4cnc(N)nc4)nc12)CCN3 + CCN1C(C(=O)NC23CCC(C(=O)O)(CC2)CC3)C(c2cccc(Cl)c2F)C2(C(=O)Nc3cc(Cl)ccc32)C12CCCCC2 | 0.37 |

* * *

# Tested on: 327498-153-R-J2-PDC complex spheroid growth, % test/control
# TEST NAME: Anticancer human tumor 327498-153-R-J2-PDC cell line growth inhibition [Asc];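 further: spheroids exposed to compound for 7 days after 3 days of growth; 100% = DMSO vehicle control wells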
# RUN PARAMETERS: second compound 0.316 µM; first compound 0.0316 µM; active compounds read low
MEASUREMENT LABEL: viability, T/C (%)

| COMPOUND | EXPERIMENTAL RESULT |
| --- | --- |
| CCN1CCN(Cc2ccc(Nc3ncc(F)c(-c4cc(F)c5nc(C)n(C(C)C)c5c4)n3)nc2)CC1 + CNC(C)C(=O)NC1CN(S(=O)(=O)c2cccc(S(=O)(=O)N3CCC4CCC(C(=O)NC(c5ccccc5)c5ccccc5)N4C(=O)C(NC(=O)C(C)NC)C3)c2)CCC2CCC(C(=O)NC(c3ccccc3)c3ccccc3)N2C1=O | 95.5 |
| COc1c(OCCCN2CCOCC2)ccc2c3n(c(=NC(=O)c4cnc(N)nc4)nc12)CCN3 + CNC(C)C(=O)NC1CN(S(=O)(=O)c2cccc(S(=O)(=O)N3CCC4CCC(C(=O)NC(c5ccccc5)c5ccccc5)N4C(=O)C(NC(=O)C(C)NC)C3)c2)CCC2CCC(C(=O)NC(c3ccccc3)c3ccccc3)N2C1=O | 86.1 |
| C=CC(=O)N1CCN(c2nc(=O)n(-c3c(C)ccnc3C(C)C)c3nc(-c4c(O)cccc4F)c(F)cc23)C(C)C1 (centres undefined) + CNC(C)C(=O)NC1CN(S(=O)(=O)c2cccc(S(=O)(=O)N3CCC4CCC(C(=O)NC(c5ccccc5)c5ccccc5)N4C(=O)C(NC(=O)C(C)NC)C3)c2)CCC2CCC(C(=O)NC(c3ccccc3)c3ccccc3)N2C1=O | 89.4 |
| NC1CCC(NC2CC2c2ccccc2)CC1 (centres undefined) + Cc1c(S(C)(=O)=O)c(-c2cc(F)cc(N3CCN(c4ccc(NS(=O)(=O)c5ccc(NC(CCN6CCC(C(=O)OCCCP(=O)(O)O)CC6)CSc6ccccc6)c(S(=O)(=O)C(F)(F)F)c5)cc4)CC3)c2)c(-c2ccc(Cl)cc2)n1C(C)C | 93.8 |

* * *

# System: 327498-153-R-J2-PDC complex spheroid growth, % test/control
# TEST NAME: Anticancer human tumor 327498-153-R-J2-PDC cell line growth inhibition [Asc];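 further: spheroids exposed to compound for 7 days after 3 days of growth; 100% = DMSO vehicle control wells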
# RUN PARAMETERS: second compound 3 µM; first compound 0.00316 µM; active compounds read low
// values below are reported viability, T/C

| COMPOUND | EXPERIMENTAL SYSTEM | viability, T/C |
| --- | --- | --- |
| Cn1ncnc1[C@H]1c2n[nH]c(=O)c3cc(F)cc(c23)N[C@@H]1c1ccc(F)cc1 + CCN1C(C(=O)NC23CCC(C(=O)O)(CC2)CC3)C(c2cccc(Cl)c2F)C2(C(=O)Nc3cc(Cl)ccc32)C12CCCCC2 | 327498-153-R-J2-PDC complex spheroid growth, % test/control | 2.79% |
| CNC(C)C(=O)NC1CN(S(=O)(=O)c2cccc(S(=O)(=O)N3CCC4CCC(C(=O)NC(c5ccccc5)c5ccccc5)N4C(=O)C(NC(=O)C(C)NC)C3)c2)CCC2CCC(C(=O)NC(c3ccccc3)c3ccccc3)N2C1=O (stereo unspecified) + CCN1C(C(=O)NC23CCC(C(=O)O)(CC2)CC3)C(c2cccc(Cl)c2F)C2(C(=O)Nc3cc(Cl)ccc32)C12CCCCC2 | 327498-153-R-J2-PDC complex spheroid growth, % test/control | 3.86% |
| NC1CCC(NC2CC2c2ccccc2)CC1 (stereo unspecified) + CCN1C(C(=O)NC23CCC(C(=O)O)(CC2)CC3)C(c2cccc(Cl)c2F)C2(C(=O)Nc3cc(Cl)ccc32)C12CCCCC2 | 327498-153-R-J2-PDC complex spheroid growth, % test/control | 2.47% |
| CCN1CCN(Cc2ccc(Nc3ncc(F)c(-c4cc(F)c5nc(C)n(C(C)C)c5c4)n3)nc2)CC1 + CCN1C(C(=O)NC23CCC(C(=O)O)(CC2)CC3)C(c2cccc(Cl)c2F)C2(C(=O)Nc3cc(Cl)ccc32)C12CCCCC2 | 327498-153-R-J2-PDC complex spheroid growth, % test/control | 3.59% |
| O=C(c1ccc(F)c(F)c1Nc1ccc(I)cc1F)N1CC(O)([C@@H]2CCCCN2)C1 + CCN1C(C(=O)NC23CCC(C(=O)O)(CC2)CC3)C(c2cccc(Cl)c2F)C2(C(=O)Nc3cc(Cl)ccc32)C12CCCCC2 | 327498-153-R-J2-PDC complex spheroid growth, % test/control | 3.41% |
| COc1c(OCCCN2CCOCC2)ccc2c3n(c(=NC(=O)c4cnc(N)nc4)nc12)CCN3 + CCN1C(C(=O)NC23CCC(C(=O)O)(CC2)CC3)C(c2cccc(Cl)c2F)C2(C(=O)Nc3cc(Cl)ccc32)C12CCCCC2 | 327498-153-R-J2-PDC complex spheroid growth, % test/control | 4.48% |

* * *

# System: 327498-153-R-J2-PDC complex spheroid growth, % test/control
# TEST NAME: Anticancer human tumor 327498-153-R-J2-PDC cell line growth inhibition [Asc];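 further: spheroids exposed to compound for 7 days after 3 days of growth; 100% = DMSO vehicle control wells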
# RUN PARAMETERS: second compound 10 µM; first compound 0.00316 µM; active compounds read low
Quick reference for viability, T/C among some compounds

| COMPOUND | QUANTITY UNIT | viability, T/C |
| --- | --- | --- |
| O=C(c1ccc(F)c(F)c1Nc1ccc(I)cc1F)N1CC(O)([C@@H]2CCCCN2)C1 + Cc1c(S(C)(=O)=O)c(-c2cc(F)cc(N3CCN(c4ccc(NS(=O)(=O)c5ccc(NC(CCN6CCC(C(=O)OCCCP(=O)(O)O)CC6)CSc6ccccc6)c(S(=O)(=O)C(F)(F)F)c5)cc4)CC3)c2)c(-c2ccc(Cl)cc2)n1C(C)C | % | 170 |
| CCN1CCN(Cc2ccc(Nc3ncc(F)c(-c4cc(F)c5nc(C)n(C(C)C)c5c4)n3)nc2)CC1 + Cc1c(S(C)(=O)=O)c(-c2cc(F)cc(N3CCN(c4ccc(NS(=O)(=O)c5ccc(NC(CCN6CCC(C(=O)OCCCP(=O)(O)O)CC6)CSc6ccccc6)c(S(=O)(=O)C(F)(F)F)c5)cc4)CC3)c2)c(-c2ccc(Cl)cc2)n1C(C)C | % | 184 |

* * *

Measured viability, T/C accompanies every entry in the list below.
# System: 327498-153-R-J2-PDC complex spheroid growth, % test/control
# TEST NAME: Anticancer human tumor 327498-153-R-J2-PDC cell line growth inhibition [Asc];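 further: spheroids exposed to compound for 7 days after 3 days of growth; 100% = DMSO vehicle control wells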
# RUN PARAMETERS: second compound 0.03 µM; first compound 0.316 µM; active compounds read low
MEASUREMENT LABEL: viability, T/C (%)

| COMPOUND | EXPERIMENTAL RESULT |
| --- | --- |
| C=C(F)C(=O)N1CCN(c2nc(OCC3CCCN3C)nc3c2CCN(c2cccc4cccc(Cl)c24)C3)CC1CC#N (centres undefined) + CCN1C(C(=O)NC23CCC(C(=O)O)(CC2)CC3)C(c2cccc(Cl)c2F)C2(C(=O)Nc3cc(Cl)ccc32)C12CCCCC2 | 59.8 |
| CCN1CCN(Cc2ccc(Nc3ncc(F)c(-c4cc(F)c5nc(C)n(C(C)C)c5c4)n3)nc2)CC1 + CCN1C(C(=O)NC23CCC(C(=O)O)(CC2)CC3)C(c2cccc(Cl)c2F)C2(C(=O)Nc3cc(Cl)ccc32)C12CCCCC2 | 48.4 |
| C=CC(=O)N1CCN(c2nc(=O)n(-c3c(C)ccnc3C(C)C)c3nc(-c4c(O)cccc4F)c(F)cc23)C(C)C1 (centres undefined) + CCN1C(C(=O)NC23CCC(C(=O)O)(CC2)CC3)C(c2cccc(Cl)c2F)C2(C(=O)Nc3cc(Cl)ccc32)C12CCCCC2 | 61.3 |
| C#Cc1c(F)ccc2cc(O)cc(-c3ncc4c(N5CC6CCC(C5)N6)nc(OCC56CCCN5CC(F)C6)nc4c3F)c12 (centres undefined) + CCN1C(C(=O)NC23CCC(C(=O)O)(CC2)CC3)C(c2cccc(Cl)c2F)C2(C(=O)Nc3cc(Cl)ccc32)C12CCCCC2 | 83.2 |
